target: biotinylated Gβ1γ2 mutant His311Ala (rat) (UniProt P54311); test: phage ELISA, % of wild-type b-βγ
Sequence (P54311 whole entry H311A, chain 1 of 2): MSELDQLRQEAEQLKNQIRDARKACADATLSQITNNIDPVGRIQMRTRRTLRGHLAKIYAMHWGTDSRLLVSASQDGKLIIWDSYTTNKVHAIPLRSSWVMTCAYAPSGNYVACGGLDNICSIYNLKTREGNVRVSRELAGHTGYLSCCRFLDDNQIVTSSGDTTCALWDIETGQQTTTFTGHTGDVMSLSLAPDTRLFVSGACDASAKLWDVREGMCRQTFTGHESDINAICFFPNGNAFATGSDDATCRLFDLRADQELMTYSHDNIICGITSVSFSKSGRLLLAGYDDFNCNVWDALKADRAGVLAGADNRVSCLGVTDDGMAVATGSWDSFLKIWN
Sequence (P63212 2-68, chain 2 of 2, further chain): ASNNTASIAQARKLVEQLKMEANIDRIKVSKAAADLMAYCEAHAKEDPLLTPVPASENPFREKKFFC
# cutoff 20% applies to % of Wild-Type Signal; >= gives yes (1), < gives no (0)

> print(dat)
                                     binder  answer.label
1  SCKRTKAQILLAPCT (Group I; also called Cl) [phage C1 (SCKRTKAQILLAPCT)]        no (0)
2  SCGHGLKVQSTIGACA (Group II) [phage 3C (SCGHGLKVQSTIGACA)]       yes (1)
3  LCSKAYLLLGQTC (Group I) [phage 2F (LCSKAYLLLGQTC)]       yes (1)
4  SCEKRLGVRSCT (Group III) [phage C5 (SCEKRLGVRSCT)]       yes (1)
5               SCEKRYGIEFCT [phage C4 (…)]       yes (1)
6  WCPPKAMTQLGIKAC (Group II) [phage C14 (WCPPKAMTQLGIKAC)]        no (0)
7  WCPPKLEQWYDGCA (Group IV) [phage C2 (WCPPKLEQWYDGCA)]        no (0)
8  SIGKALFILGYPDYD [phage 3.14 (SIGKALFILGYPDYD)]       yes (1)
